Target: recombinant human TFPI (tissue factor pathway inhibitor) (human, UniProt P10646 29-304)
Assay: cell-based or functional assay
Exercise: for every item that follows, state its recorded FXa assay % of FXa alone, 5 nM Ab, 10 nM TFPI.

Answered cases to consult:
>  <binder>
clone A67 (antibody, V domains shown) VH: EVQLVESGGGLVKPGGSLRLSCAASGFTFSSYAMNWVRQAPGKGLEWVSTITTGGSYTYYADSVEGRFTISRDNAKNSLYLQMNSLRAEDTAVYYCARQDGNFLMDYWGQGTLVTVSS VL: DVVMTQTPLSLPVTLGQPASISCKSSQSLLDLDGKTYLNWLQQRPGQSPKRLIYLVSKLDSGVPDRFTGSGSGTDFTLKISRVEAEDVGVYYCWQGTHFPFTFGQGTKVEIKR

>  <observed>
28.8%

$$$$
>  <binder>
clone 4206 (antibody, V domains shown) VH: EVQLVESGGGLVKPGGSLRLSCAASGFTFSSYAMNWVRQAPGKGLEWVSTITTGGSHTYYADSVEGRFTISRDNAKNSLYLQMDSLRAEDTAVYYCARQDGNFLMDYWGQGTLVTVSS VL: DVVMTQTPLSLPVTLGQPASISCKSSQSLLDVDGKTYLNWLQQRPGQSPKRLIYLVSKLDSGVPDRFTGSGSGTDFTLKISRVEAEDVGVYYCWQGTHLPFTFGQGTKVEIKR

>  <observed>
6.1%

$$$$

Query: Determine its reported FXa assay % of FXa alone, 5 nM Ab, 10 nM TFPI: clone 4208 (antibody, V domains shown) VH: EVQLVESGGGLVKSGGSLRLSCAASGFTFSSYAMSWVRQAPGKGLEWVGTITTGGSYTYYADSVQGRFTISRDNAKNSLYLQMNSLRAEDTAVYYCARQDGNFLMDYWGQGTLVTVSS VL: DVVMTQTPLSLPVTLGQPASISCKSSQSLLDTDGKTYLNWLQQRPGQSPKRLIYLVSKLDSGVPDRFTGSGSGTDFTLKISRVEAEDVGVYYCWQGTHFPFTFGQGTKVEIKR
Response: 6.1%

# credit: patent US20180030151A1
